Test system: T-47D
Test: drug sensitivity score (DSS) (DSS (dimensionless)); higher = more sensitive; extreme values may be limits of the assay
Conditions: 4-OH-tamoxifen in medium 0 µM; 72 h
# cutoff 2 applies to drug sensitivity score; >= gives met, < gives not met

COc1cc2c(Oc3ccc(NC(=O)C4(C(=O)Nc5ccc(F)cc5)CC4)cc3F)ccnc2cc1OCCCN1CCOCC1	not met
Cc1[nH]c2ccccc2c1CCNCc1ccc(/C=C/C(=O)NO)cc1	met
N#Cc1ccc(COC[C@H]2O[C@@H](n3c(NCc4ccc(Cl)c(Cl)c4)nc4c(N)ncnc43)[C@H](O)[C@@H]2O)cc1	not met
CCCCCOC(=O)Nc1nc(=O)n([C@@H]2O[C@H](C)[C@@H](O)[C@H]2O)cc1F	not met
Nc1cccc2c1CN(C1CCC(=O)NC1=O)C2=O (stereo unspecified) [Lenalidomide]	not met

*Q* Assess whether reported drug sensitivity score for COc1cccc2c1C(=O)c1c(O)c3c(c(O)c1C2=O)C[C@@](O)(C(=O)CO)C[C@@H]3O[C@H]1C[C@H](N)[C@H](O)[C@H](C)O1 sits at 2 or higher.
*A* met

*Q* Item Cc1c(N)nc([C@H](CC(N)=O)NC[C@H](N)C(N)=O)nc1C(=O)N[C@H](C(=O)N[C@H](C)[C@@H](O)[C@H](C)C(=O)N[C@H](C(=O)NCCc1nc(-c2nc(C(=O)NCCC[S+](C)C)cs2)cs1)[C@@H](C)O)[C@@H](OC1OC(CO)C(O)C(O)C1OC1OC(CO)C(O)C(OC(N)=O)C1O)c1cnc[nH]1 (stereo partly specified) with drug sensitivity score of 2 or above?
*A* not met

*Q* Is it the case that COc1cc([C@@H]2c3cc4c(cc3[C@@H](O[C@@H]3O[C@@H]5CO[C@@H](C)O[C@H]5[C@H](O)[C@H]3O)[C@H]3COC(=O)[C@H]23)OCO4)cc(OC)c1O [Etoposide] has drug sensitivity score reaching or exceeding 2?
*A* met

*Q* Is it the case that CNC(=O)c1ccccc1Sc1ccc2c(/C=C/c3ccccn3)n[nH]c2c1 has drug sensitivity score reaching or exceeding 2?
*A* met

*Q* hey, is drug sensitivity score for this one >= 2? CCCC(CCC)C(=O)O
*A* not met

*Q* Please indicate if the recorded drug sensitivity score for CCS(=O)(=O)c1cccc(-c2cc(C(=O)NC3CCN(C)CC3)c(C)c3[nH]c4ncc(C)cc4c23)c1 meets or exceeds 2.
*A* met

*Q* # bool: drug sensitivity score of C[C@@]1(C(=O)Nc2ccc(F)nc2)CCCN1c1nc(Nc2cc(C3CC3)n[nH]2)c2cccn2n1 >= 2
*A* met

*Q* Please check the record NC(=O)c1ccc(I)c([N+](=O)[O-])c1 and state if its drug sensitivity score is at or above 2.
*A* not met

*Q* Is the recorded value of drug sensitivity score equal to or greater than 2 for this molecule? CC(=O)Nc1ccc(C(=O)Nc2ccccc2N)cc1
*A* not met

*Q* Check if drug sensitivity score >= 2 (inclusive). Item: CN(Cc1cnc2nc(N)nc(N)c2n1)c1ccc(C(=O)N[C@@H](CCC(=O)O)C(=O)O)cc1 [Methotrexate]
*A* not met

*Q* Please check the record CS(=O)(=O)N1CCN(Cc2cc3nc(-c4cccc5[nH]ncc45)nc(N4CCOCC4)c3s2)CC1 and state if its drug sensitivity score is at or above 2.
*A* met
